- study_target: mAChR M4 (Homo sapiens)
- Construct: expressed in transfected cells; host or cells: CHO-K1 cells stably transfected with M4 cDNA and chimeric G-protein Gqi5
- Sequence (P08173 1-479): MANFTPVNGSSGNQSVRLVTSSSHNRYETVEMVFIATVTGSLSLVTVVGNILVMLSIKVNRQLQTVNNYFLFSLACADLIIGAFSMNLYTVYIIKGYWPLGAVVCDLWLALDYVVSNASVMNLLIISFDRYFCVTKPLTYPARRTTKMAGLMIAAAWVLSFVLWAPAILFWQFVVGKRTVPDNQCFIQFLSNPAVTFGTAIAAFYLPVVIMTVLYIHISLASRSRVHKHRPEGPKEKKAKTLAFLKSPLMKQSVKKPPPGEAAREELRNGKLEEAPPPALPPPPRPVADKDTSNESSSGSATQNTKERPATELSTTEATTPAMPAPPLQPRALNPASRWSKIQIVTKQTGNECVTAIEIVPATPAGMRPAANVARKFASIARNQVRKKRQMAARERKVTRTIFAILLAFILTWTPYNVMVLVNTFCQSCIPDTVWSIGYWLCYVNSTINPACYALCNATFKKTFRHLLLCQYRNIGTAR
- test_details: mAChR M4 cell-based functional assay (calcium mobilization, potentiation of EC20 acetylcholine response)
- setup_conditions: mAChR M4 cell-based functional assay; >10,000 estimated for low potency compounds without plateau; read-out: EC50
Here, each record is paired with measured EC50 data.

compound	study_target	EC50
Cc1nnc2sc(C(=O)N3CC(NCCC(C)C)C3)c(N)c2c1C [Example B63]	mAChR M4 (Homo sapiens)	> 10 µM

### Prompt What does the record list as EC50 for CC(=O)NC1CN(C(=O)c2sc3nnc(C)c(C)c3c2N)C1 [Example B157] ?
### Response > 10 µM

### Prompt # repeat for Cc1nnc2sc(C(=O)NCc3cnccn3)c(N)c2c1C [Example B10]
### Response > 10 µM

### Prompt # repeat for COC1(C)CN(C(=O)c2sc3nnc(C)c(C)c3c2N)C1 [Example B292]
### Response > 10 µM

### Prompt # repeat for Nc1c(C(=O)NCc2ccncc2)sc2nnc(-c3ccccc3)c(-c3ccccc3)c12 [Example B39]
### Response > 10 µM

### Prompt # repeat for Cc1nnc2sc(C(=O)NCc3ccc(-c4cnn(C)c4)cc3)c(N)c2c1C [Example B447]
### Response > 10 µM

* * *

- study_target: mAChR M4 (Homo sapiens, UniProt P08173)
- Construct: expressed in transfected cells; host or cells: CHO-K1 cells stably transfected with M4 cDNA and chimeric G-protein Gqi5
- test_details: mAChR M4 cell-based functional assay (calcium mobilization, potentiation of EC20 acetylcholine response)
- setup_conditions: % ACh maximum at 30 μM
Classes are defined on Emax at 30 µM with ranges A: < 60%; B: ≥ 60% and < 70%; C: ≥ 70%

compound	group_label
Cc1nnc2sc(C(=O)N3CCC(NC(=O)CCc4ccccc4)C3)c(N)c2c1C (stereo not shown) [Example B249]	A
Cc1nnc2sc(C(=O)N3CC(Sc4ccc(F)cc4F)C3)c(N)c2c1C [Example B419]	A
Cc1nnc2sc(C(=O)NC3CCN(c4ccc(C(F)(F)F)cc4)C3)c(N)c2c1C (stereo not shown) [Example B283]	C
Cc1nnc2sc(C(=O)N3CCC(NC(=O)OCc4ccccc4)C3)c(N)c2c1C (stereo not shown) [Example B220]	B

### Prompt Which bin should I file COCOc1ccc(CNC(=O)c2sc3nnc(C)c(C)c3c2N)cc1F [Example B162] under?
### Response B

### Prompt # repeat for Nc1c(C(=O)NCc2ccc(S(=O)(=O)CF)cc2)sc2nnc3c(c12)CCCC3 [Example B428]
### Response A

### Prompt # repeat for Cc1nnc2sc(C(=O)NC3CCN(C(=O)Oc4ccccc4)C3)c(N)c2c1C (stereo not shown) [Example B203]
### Response C

### Prompt # repeat for CCCOC(=O)NC1CCN(C(=O)c2sc3nnc(C)c(C)c3c2N)C1 (stereo not shown) [Example B210]
### Response A

* * *

- study_target: mAChR M4 (Homo sapiens, UniProt P08173)
- Construct: expressed in transfected cells; host or cells: CHO-K1 cells stably transfected with M4 cDNA and chimeric G-protein Gqi5
- test_details: mAChR M4 cell-based functional assay (calcium mobilization, potentiation of EC20 acetylcholine response)
- setup_conditions: mAChR M4 cell-based functional assay; >10,000 estimated for low potency compounds without plateau; read-out: EC50
measured_endpoint: EC50

Please review the entries below; each comes with its answer.
compound	EC50
Cc1nnc2sc(C(=O)NC3CN(S(=O)(=O)c4ccc(F)cc4F)C3)c(N)c2c1C [Example B146]	66 nM
Cc1nnc2sc(C(=O)NC3CN(S(=O)(=O)c4cccc5c4OCCC5)C3)c(N)c2c1C [Example B143]	120 nM

Proceeding to the next compound to report its EC50.
### Prompt What does the record list as EC50 for Cc1nnc2sc(C(=O)NCc3ccc(N4CCCC4=O)cc3)c(N)c2c1C [Example B238] ?
### Response 130 nM

* * *

- study_target: mAChR M4 (Homo sapiens, UniProt P08173)
- Construct: expressed in transfected cells; host or cells: CHO-K1 cells stably transfected with M4 cDNA and chimeric G-protein Gqi5
- test_details: mAChR M4 cell-based functional assay (calcium mobilization, potentiation of EC20 acetylcholine response)
- setup_conditions: % ACh maximum at 30 μM
Values of Emax at 30 µM greater than or equal to 60% map to Criterion met; values below map to Criterion not met.

Examples with answers:
compound	study_target	group_label
Cc1nnc2sc(C(=O)NCc3ccc(-c4ccnc(F)c4)cc3)c(N)c2c1C	mAChR M4 (Homo sapiens, UniProt P08173)	Criterion met
COc1ncccc1-c1ccc(CNC(=O)c2sc3nnc(C)c(C)c3c2N)cc1	mAChR M4 (Homo sapiens, UniProt P08173)	Criterion met
Cc1nnc2sc(C(=O)N3CCC(NC(=O)c4cccc(F)c4)C3)c(N)c2c1C (stereo not drawn)	mAChR M4 (Homo sapiens, UniProt P08173)	Criterion met

### Prompt Dear colleague, could you confirm whether Cc1nnc2sc(C(=O)N3CCC(NC(=O)c4ccncc4)C3)c(N)c2c1C (stereo not drawn) has Emax at 30 µM at or above 60%?
### Response Criterion met

### Prompt # repeat for COc1ccc(CNC(=O)c2sc3nnc(-c4ccccc4)c(-c4ccccc4)c3c2N)cc1
### Response Criterion not met

* * *

Here, each record is paired with measured pEC50 data.
- study_target: mAChR M4 (Homo sapiens, UniProt P08173)
- Construct: expressed in transfected cells; host or cells: CHO-K1 cells stably transfected with M4 cDNA and chimeric G-protein Gqi5
- Sequence (P08173 1-479): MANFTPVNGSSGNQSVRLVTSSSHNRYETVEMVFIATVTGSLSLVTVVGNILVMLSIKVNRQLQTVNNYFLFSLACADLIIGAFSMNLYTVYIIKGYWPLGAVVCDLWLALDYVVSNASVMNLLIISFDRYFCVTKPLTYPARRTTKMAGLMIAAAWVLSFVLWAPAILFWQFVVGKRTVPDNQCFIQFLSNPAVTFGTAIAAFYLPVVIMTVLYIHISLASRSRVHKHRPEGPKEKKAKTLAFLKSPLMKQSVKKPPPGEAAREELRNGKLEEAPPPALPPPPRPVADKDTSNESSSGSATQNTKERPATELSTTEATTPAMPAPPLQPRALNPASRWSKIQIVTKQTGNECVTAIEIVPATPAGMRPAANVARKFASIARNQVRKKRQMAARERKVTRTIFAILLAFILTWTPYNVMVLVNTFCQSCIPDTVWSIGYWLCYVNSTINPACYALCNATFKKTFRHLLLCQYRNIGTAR
- test_details: mAChR M4 cell-based functional assay (calcium mobilization, potentiation of EC20 acetylcholine response)
- setup_conditions: mAChR M4 cell-based functional assay; >10,000 estimated for low potency compounds without plateau; read-out: EC50
Value format note: pEC50 is -log10 of concentration (mol/L); just state the number.

molecule	study_target	pEC50
COc1ccc(CNC2CN(C(=O)c3sc4nnc(C)c(C)c4c3N)C2)cc1 [Example B61]	mAChR M4 (Homo sapiens, UniProt P08173)	5.34
Cc1nnc2sc(C(=O)N3CC(NC(=O)C4CCCCC4)C3)c(N)c2c1C [Example B185]	mAChR M4 (Homo sapiens, UniProt P08173)	5.74
COc1ccccc1C1(OC)CN(C(=O)c2sc3nnc(C)c(C)c3c2N)C1 [Example B294]	mAChR M4 (Homo sapiens, UniProt P08173)	5.96
Cc1nnc2sc(C(=O)NC3CN(C(=O)c4ccccn4)C3)c(N)c2c1C [Example B126]	mAChR M4 (Homo sapiens, UniProt P08173)	6.54
Cc1nnc2sc(C(=O)NCc3ccc4c(ccn4C)c3)c(N)c2c1C [Example B196]	mAChR M4 (Homo sapiens, UniProt P08173)	7.21
CCOC(=O)N1CC2CN(C(=O)c3sc4nnc(C)c(C)c4c3N)CC2C1 (centres unmarked) [Example B285]	mAChR M4 (Homo sapiens, UniProt P08173)	5.60
Cc1nnc2sc(C(=O)NCc3ccc(S(C)(=O)=O)nc3)c(N)c2c1C [Example B330]	mAChR M4 (Homo sapiens, UniProt P08173)	6.82
Cc1nnc2sc(C(=O)N3CC4CN(c5cccc(Br)n5)CC4C3)c(N)c2c1C (centres unmarked) [Example B437]	mAChR M4 (Homo sapiens, UniProt P08173)	7.01

### Prompt What does the record list as pEC50 for Cc1nnc2sc(C(=O)N3CCC(NC(=O)Oc4ccccc4)C3)c(N)c2c1C (centres unmarked) [Example B205] ?
### Response 6.24

### Prompt # repeat for Cc1nnc2sc(C(=O)N3Cc4ccccc4C3)c(N)c2c1C [Example B280]
### Response 5.77
